Consider compounds characterized by their pIC50 with JAK2 (Homo sapiens).
Sequence (O60674 whole entry): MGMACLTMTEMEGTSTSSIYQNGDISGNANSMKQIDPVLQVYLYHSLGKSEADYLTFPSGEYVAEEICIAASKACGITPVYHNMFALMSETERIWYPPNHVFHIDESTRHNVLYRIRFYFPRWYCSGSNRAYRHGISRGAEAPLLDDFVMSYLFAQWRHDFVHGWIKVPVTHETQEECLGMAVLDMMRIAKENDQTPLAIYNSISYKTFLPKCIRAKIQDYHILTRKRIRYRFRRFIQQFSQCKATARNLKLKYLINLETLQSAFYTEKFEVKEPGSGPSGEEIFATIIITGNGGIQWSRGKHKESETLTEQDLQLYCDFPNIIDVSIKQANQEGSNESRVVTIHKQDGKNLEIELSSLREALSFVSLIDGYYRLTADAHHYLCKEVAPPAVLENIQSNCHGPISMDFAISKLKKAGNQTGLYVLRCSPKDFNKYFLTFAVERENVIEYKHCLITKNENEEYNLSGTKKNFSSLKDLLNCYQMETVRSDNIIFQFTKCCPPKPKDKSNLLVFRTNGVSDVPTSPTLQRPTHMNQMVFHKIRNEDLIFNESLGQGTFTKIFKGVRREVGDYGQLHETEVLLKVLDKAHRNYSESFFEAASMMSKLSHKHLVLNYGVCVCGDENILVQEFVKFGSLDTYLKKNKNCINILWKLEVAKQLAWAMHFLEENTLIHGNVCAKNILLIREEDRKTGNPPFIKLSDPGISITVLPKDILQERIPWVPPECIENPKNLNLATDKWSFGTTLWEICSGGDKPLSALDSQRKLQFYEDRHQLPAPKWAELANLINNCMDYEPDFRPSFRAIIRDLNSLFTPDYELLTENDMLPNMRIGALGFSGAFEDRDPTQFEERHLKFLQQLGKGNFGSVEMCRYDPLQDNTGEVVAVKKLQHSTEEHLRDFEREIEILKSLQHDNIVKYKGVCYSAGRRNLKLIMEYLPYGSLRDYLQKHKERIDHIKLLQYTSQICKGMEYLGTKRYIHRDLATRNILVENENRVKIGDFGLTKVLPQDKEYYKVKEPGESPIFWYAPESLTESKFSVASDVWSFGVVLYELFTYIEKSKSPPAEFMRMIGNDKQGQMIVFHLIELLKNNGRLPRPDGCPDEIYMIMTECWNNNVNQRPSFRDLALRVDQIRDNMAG
Conceptually, pIC50 converts a concentration in mol/L into minus its log10.

compound | pIC50
Cn1cc(Nc2nccc(N3CC4CSC(C3)N4C(=O)[C@@H]3CC3(F)F)n2)cn1 (some centres unmarked) | 7.57

Next item in the queue.
Ask: For the compound `O=C([C@@H]1CC1(F)F)N1[C@H]2CS[C@@H]1CN(c1ccnc(Nc3cnn(CCO)c3)n1)C2` , what pIC50 is on record?
Reply: 8.85

---

target: TYK2 (Homo sapiens)
Sequence (P29597 whole entry): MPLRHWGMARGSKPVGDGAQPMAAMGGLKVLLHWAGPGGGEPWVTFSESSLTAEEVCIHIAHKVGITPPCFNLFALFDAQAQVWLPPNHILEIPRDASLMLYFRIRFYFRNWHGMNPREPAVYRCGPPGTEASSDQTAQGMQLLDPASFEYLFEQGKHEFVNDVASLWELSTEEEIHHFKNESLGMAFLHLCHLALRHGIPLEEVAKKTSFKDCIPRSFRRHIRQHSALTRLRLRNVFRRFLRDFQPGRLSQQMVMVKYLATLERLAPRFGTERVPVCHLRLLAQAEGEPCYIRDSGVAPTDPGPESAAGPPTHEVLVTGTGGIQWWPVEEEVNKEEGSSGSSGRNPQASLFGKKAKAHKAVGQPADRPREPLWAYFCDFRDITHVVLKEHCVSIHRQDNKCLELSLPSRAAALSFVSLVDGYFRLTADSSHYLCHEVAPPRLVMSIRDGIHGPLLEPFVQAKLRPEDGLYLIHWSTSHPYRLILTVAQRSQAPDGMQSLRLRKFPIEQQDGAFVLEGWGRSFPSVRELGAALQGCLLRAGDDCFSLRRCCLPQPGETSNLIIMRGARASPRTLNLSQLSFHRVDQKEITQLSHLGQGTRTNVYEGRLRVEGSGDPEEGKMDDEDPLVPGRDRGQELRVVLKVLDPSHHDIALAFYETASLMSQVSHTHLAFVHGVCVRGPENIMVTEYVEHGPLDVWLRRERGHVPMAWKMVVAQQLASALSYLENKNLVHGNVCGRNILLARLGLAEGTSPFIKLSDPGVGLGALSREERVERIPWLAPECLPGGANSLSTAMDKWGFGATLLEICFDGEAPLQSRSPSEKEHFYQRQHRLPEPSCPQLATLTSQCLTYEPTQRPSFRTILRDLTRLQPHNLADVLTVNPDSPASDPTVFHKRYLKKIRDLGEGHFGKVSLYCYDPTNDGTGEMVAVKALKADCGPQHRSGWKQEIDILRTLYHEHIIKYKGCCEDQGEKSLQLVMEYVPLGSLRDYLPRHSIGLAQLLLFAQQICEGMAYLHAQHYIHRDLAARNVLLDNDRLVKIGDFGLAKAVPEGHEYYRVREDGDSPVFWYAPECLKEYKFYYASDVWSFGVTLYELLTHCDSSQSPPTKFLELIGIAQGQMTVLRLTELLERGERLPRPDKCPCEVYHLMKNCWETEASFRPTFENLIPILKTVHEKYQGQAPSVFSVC
molecules and their reported IC50
Report as a plain number; the unit nM is understood.

Examples with answers:
molecule | system | IC50 / nM
O=C([C@@H]1CC1(F)F)N1[C@H]2CS[C@@H]1CN(c1ccnc(Nc3cnn(C4(CO)CC4)c3)n1)C2 [Example 3] | TYK2 (Homo sapiens) | 2.9
Cn1cc(Nc2nccc(N3CC4CSC(C3)N4C(=O)[C@@H]3CC3(F)F)n2)cn1 (stereo partly drawn) [Example 1] | TYK2 (Homo sapiens) | 4.2

Next item in the queue.
Ask: For the molecule O=C([C@@H]1CC1(F)F)N1[C@H]2CS[C@@H]1CN(c1ccnc(Nc3cnn(CCO)c3)n1)C2 [Example 2] , what IC50 is on record?
Reply: 1.7
